Molecular target: Human neutrophil elastase (Homo sapiens, UniProt P08246)
Sequence (P08246 30-267): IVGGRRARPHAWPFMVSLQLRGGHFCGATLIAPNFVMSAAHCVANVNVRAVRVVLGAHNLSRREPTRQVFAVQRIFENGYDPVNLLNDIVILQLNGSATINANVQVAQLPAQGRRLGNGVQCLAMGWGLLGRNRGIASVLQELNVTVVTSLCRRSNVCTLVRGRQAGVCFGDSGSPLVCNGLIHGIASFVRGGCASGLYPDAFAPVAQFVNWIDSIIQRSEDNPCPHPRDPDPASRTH
Assay: Human Neutrophil Elastase Assay
Conditions: Neutrophil Elastase assay; substrate MeOSuc-Ala-Ala-Pro-Val-AMC 250 μM; 15 min preincubation, 60 min incubation at room temperature; pH 7.5
quantity_kind: IC50

The value of IC50 measured for the compound Cc1c(-c2ccnc(C(F)(F)F)c2)c(=O)c(C(=O)NC2CCNC2=O)cn1C(C)c1ccc(C#N)cc1 (stereo not shown) turned out to be 4.1 nM

Given item Cc1c(-c2cccc(C(F)F)c2)c(=O)c(C(=O)NCc2ccccn2)cn1C(C)c1ccc(C#N)cc1 (stereo not shown) , the value recorded as its IC50 is 1.7 nM

Reported IC50 of CCOCCNC(=O)c1cn(C(C)c2ccc(C#N)cc2)c(C)c(-c2ccnc(C(F)(F)F)c2)c1=O (stereo not shown) : 5.4 nM

// field: IC50; key: Cc1c(-c2cccc(C(F)F)c2)c(=O)c(C(=O)NCCCN(C)C)cn1C(C)c1ccc(C#N)cc1 (stereo not shown) ; value = 4.1 nM
